All values here come from paper PMC6273488.

Give viability at 24 h, 1 mM for every item shown.
test: in vitro; type: cell-based; conditions: human, HepG2 cells; HepG2, 1 mM, 24 h, MTT; read-out: In vitro toxicity (% cell viability)
Give bare numbers, in %.

Go through the list and state viability at 24 h, 1 mM for each entry.
1. O=c1c2c(nc3n1CCCC3)Oc1ccc3ccccc3c1C2c1ccccc1 (stereo not shown)
2. Cc1ccc(C2c3c(nc4n(c3=O)CCCC4)Oc3ccc4ccccc4c32)cc1 (stereo not shown)
3. COc1cccc(C2c3c(nc4n(c3=O)CCC4)Oc3ccc4ccccc4c32)c1 (stereo not shown)
4. COc1cccc(C2c3c(nc4n(c3=O)CCCC4)Oc3ccc4ccccc4c32)c1 (stereo not shown)

1: 110; 2: 110; 3: 120; 4: 128

---

test: in vitro; assay type: cell-based; conditions: HepG2, 100 µM, 24 h, MTT; read-out: In vitro toxicity (% cell viability)
Experimental Readout: viability at 24 h, 100 µM (%)
Numbers only, in %.

Hello, please tell me recorded viability at 24 h, 100 µM for this one: Nc1c2c(nc3ccccc13)CCCC2 [Tacrine, tacrine, reference compound]
95.2

---

Assay: in vitro
Details: PAMPA, pH 7.4
Experimental: Penetration across the BBB is an essential property for compounds targeting the CNS. […] The concentration of the drug in both donor and the acceptor wells was assessed after 3, 4, 5 and 6 h of incubation in quadruplicate using the UV plate reader Synergy HT (Biotek, Winooski, VT, USA) at the maximum absorption wavelength of each compound.
Experimental Readout: Papp
Provide a numeric answer, followed by its unit.

The following compounds have reported results that may help.
>  <Compound>
Nc1c2c(nc3ccccc13)CCCC2 [Tacrine, tacrine, reference compound]

>  <Experimental Readout>
Papp

>  <Value Measured>
5.3 ×10⁻⁶ cm/s

$$$$
>  <Compound>
CCN(C)C(=O)Oc1cccc([C@H](C)N(C)C)c1 [Rivastigmine, reference compound]

>  <Experimental Readout>
Papp

>  <Value Measured>
6.6 ×10⁻⁶ cm/s

$$$$

Hello, please tell me recorded Papp for this one: CN1C(C(=O)Nc2ccccn2)=C(O)c2ccccc2S1(=O)=O [Piroxicam, reference compound]
2.2 ×10⁻⁶ cm/s

---

experiment: in vitro; assay type: cell-based; details: human, HepG2 cells; HepG2, 10 µM, 24 h, MTT; read-out: In vitro toxicity (% cell viability)
Give viability at 24 h, 10 µM for every item shown.
Provide a numeric answer, followed by its unit.

Go through the list and state viability at 24 h, 10 µM for each entry.
1. Cc1ccc(C2c3c(nc4n(c3=O)CCCC4)Oc3ccc4ccccc4c32)cc1 (stereo not shown)
2. COc1cccc(C2c3c(nc4n(c3=O)CCCC4)Oc3ccc4ccccc4c32)c1 (stereo not shown)
3. O=c1c2c(nc3n1CCCC3)Oc1ccc3ccccc3c1C2c1ccccc1 (stereo not shown)
4. COc1cccc(C2c3c(nc4n(c3=O)CCC4)Oc3ccc4ccccc4c32)c1 (stereo not shown)

1. 110%
2. 105%
3. 98.5%
4. 106%
